Please provide measured MIC for the entries that follow.
# System: Klebsiella pneumoniae
# measurement_protocol: Antibacterial activity against Klebsiella pneumoniae after 3 to 4 days by serial plate dilution method
# Format: functional
The response must be a number in µg/mL with no trailing unit.

May I ask what MIC has been recorded for CC(C)Cc1ccc(C(C)c2nn(CN3CCN(c4ccc([N+](=O)[O-])cc4)CC3)c(=S)o2)cc1 (centres undefined) ? 12.5

What do we get for CSc1ccc(Cc2nn(CN3CCNCC3)c(=S)o2)cc1 ? 12.5

What do we get for CC(C)Cc1ccc(C(C)c2nn(CN3CCNCC3)c(=S)o2)cc1 (centres undefined) ? 12.5

What do we get for CSc1ccc(Cc2nn(CN3CCN(c4ccc(F)cc4)CC3)c(=S)o2)cc1 ? 6.25
